Below: a set of entries, each annotated with reported inhibition.
Biological target: Large T antigen (Simian virus 40)
Assay: SV40 large T antigen inhibitors, biochemical (AID 1903)
Details: SV40 large T antigen ATPase/helicase inhibition assay; at 20 µM; hits give high values
Out of some 310,000 compounds screened, about 1,200 (0.39%) were called active. Only a sample is shown. Measured potencies and affinities stand elsewhere.
Report as a plain number; the unit % is understood.

The cases that follow already have their inhibition on record.
What reported inhibition corresponds to COc1ccccc1CCN1CCCC(CN(C)C(=O)c2ccc3nc[nH]c3c2)C1 (stereo unspecified) on Large T antigen (Simian virus 40)?
6.91

Reported inhibition for Large T antigen (Simian virus 40), given `Cc1c(Cl)cccc1NC(=O)Cn1cc(C(F)(F)F)cc(Cl)c1=O` ?
6.09

Provide value of inhibition for this record tested with Large T antigen (Simian virus 40): `Cn1c2ccccc2c2cnn(CC(=O)NCCCN3CCN(c4ccccc4F)CC3)c(=O)c21`
9.9

Provide the documented inhibition with Large T antigen (Simian virus 40) as the system for `O=C(c1cc(=O)c2ccccc2o1)N1CCN(c2cccc(Cl)c2)CC1`
8.8

Item `CCOc1cc(/C=N/n2cnnc2)cc(Br)c1O` with Large T antigen (Simian virus 40) - inhibition?
23.3

Write down the reported inhibition of `CCOc1cc(/C=N/n2c(C)nnc2C)ccc1O` , test system: Large T antigen (Simian virus 40).
27.2

What measured inhibition is associated with `CNc1cc(Cl)nc(SC)n1` on Large T antigen (Simian virus 40)?
5.2

For the record O=C(NC(NC1CCS(=O)(=O)C1)C(Cl)(Cl)Cl)c1cccc(Cl)c1 (stereo unspecified) , what value of inhibition is listed for Large T antigen (Simian virus 40)?
26

Form field - read-out: inhibition; system: Large T antigen (Simian virus 40); submitted item: `COc1ccc(OC)c(CCNC(=O)Cn2nc(C)c3c(C)n(-c4ccccc4)nc3c2=O)c1`
2.47

Lab note: need inhibition for `Cc1cccc(N2CCN(C3=NC(=O)C(=C4CCCCC4)S3)CC2)c1` on Large T antigen (Simian virus 40), anyone have it?
7.31

Next, consider the following compound.
I'm curious: which inhibition was measured for `Cc1ccc(NC(=O)c2nc[nH]c2C(=O)N2CCC(C)CC2)cc1` tested on Large T antigen (Simian virus 40)?
9.16

###

Target: Large T antigen (Simian virus 40) (UniProt P03070)
Sequence (P03070 whole entry, looked up): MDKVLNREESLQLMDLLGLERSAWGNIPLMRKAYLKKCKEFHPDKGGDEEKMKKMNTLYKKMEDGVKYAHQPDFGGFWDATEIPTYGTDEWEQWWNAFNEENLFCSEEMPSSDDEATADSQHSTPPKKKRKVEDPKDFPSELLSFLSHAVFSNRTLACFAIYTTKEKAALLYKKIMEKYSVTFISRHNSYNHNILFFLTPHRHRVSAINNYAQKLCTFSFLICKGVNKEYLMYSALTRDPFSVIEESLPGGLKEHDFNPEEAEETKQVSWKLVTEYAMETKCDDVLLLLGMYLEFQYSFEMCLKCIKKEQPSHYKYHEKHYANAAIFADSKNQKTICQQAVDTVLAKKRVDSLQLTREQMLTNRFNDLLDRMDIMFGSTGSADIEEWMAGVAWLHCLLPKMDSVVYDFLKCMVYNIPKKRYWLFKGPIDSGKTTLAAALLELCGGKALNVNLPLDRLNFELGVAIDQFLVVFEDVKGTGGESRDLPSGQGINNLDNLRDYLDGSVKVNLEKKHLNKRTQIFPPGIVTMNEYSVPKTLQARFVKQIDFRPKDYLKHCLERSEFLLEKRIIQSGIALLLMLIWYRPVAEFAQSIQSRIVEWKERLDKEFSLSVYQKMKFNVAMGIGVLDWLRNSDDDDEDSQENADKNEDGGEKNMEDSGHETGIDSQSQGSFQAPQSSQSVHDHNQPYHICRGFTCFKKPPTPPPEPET
Assay: SV40 large T antigen inhibitors, biochemical (AID 1903)
Details: SV40 large T antigen ATPase/helicase inhibition assay; at 20 µM; hits give high values
About 1,200 (0.39%) of roughly 310,000 compounds were called active. A selection follows. Results with a measured potency or affinity are listed apart.
Reported inhibition by item:
// note: answer is a bare numeric in %

May I ask what inhibition has been recorded for O=C(NCc1ccccc1)C1CC(=O)N(c2ccc(OCC(=O)N3CCCC3)cc2)C1 (stereo not drawn) ?
5.81

Continuing:
Entry `COc1ccc(-n2ccnc2SCC(=O)Nc2ccccc2)cc1` : reported inhibition = ?
15

Would you kindly share the measured inhibition for `COCCNC(=O)C(=O)c1cc(C)n(-c2ccc([N+](=O)[O-])cc2)c1C` ?
3.94

Which inhibition is reported for this compound? `Cc1ccc(N=C2CCCCCN2C)c(C#N)c1`
15.4

Fill in the blank: the reported inhibition of `COc1ccccc1Oc1ccc(NC(=O)c2ccc(Cl)cc2)cc1` is ____.
6.92

Recorded inhibition for `O=C1C(Cl)=C(N2CCCCC2)C(=O)N1Cc1ccccc1` , please?
0.56

Need inhibition of `Cc1nn(-c2ccccc2)c(Cl)c1C(=O)Nc1ccc(N2CCOCC2)cc1` , thanks.
9.69
